- Tested on: L1210
- ASSAY_EXPLANATION: In vitro cytotoxicity in L1210 leukemia resistant to cisplatin
- Format: functional, Mus musculus
- EXPERIMENTAL_CONTEXT: read-out: ID50 (the source's name)
ENDPOINT: IC50 (µM)
Note: unit µM is implicit; provide only the numeric part.

Value lookup for IC50; key = CC(C)(N)CCC(C)(C)N
5.53

Reference source for all entries: ChEMBL document CHEMBL1124873
